- Assay Details: qHTS assay for identifying genotoxic compounds that show differential cytotoxicity against isogenic chicken DT40 cell lines with known DNA damage response pathways - Rev3 mutant cell line (AID 743014); note: nearly all actives have a fitted effect of over 55% in size
- Measurement Context: chicken DT40 Rev3-/- viability, CellTiter-Glo, 40 h; series mostly up to 68.4 µM
Inconclusive results are not listed. Calls of active or inactive are those of the source. Calls come from the whole dose curve; as a rule, active = well fitted cell-killing curve with a large enough effect in the repeat runs; inconclusive = weak or mixed curves, or effect the other way; inactive = no such curve, though single readings can be large or run the other way.
Allowed answers: active, inactive

For orientation, consider the following solved cases.
Molecule	Discrete Label
CC[N+](CC)(CC(=O)Nc1c(C)cccc1C)Cc1ccccc1 (tested in a mixture with another compound)	active
O=C(CO)[C@@H](O)[C@H](O)[C@@H](O)CO	inactive
[O-][n+]1cccc(CO)c1	inactive
CCOC(=O)C1=NOC(c2ccccc2)(c2ccccc2)C1	active
CO[C@@]1(NC(=O)C(C(=O)O)c2ccc(O)cc2)C(=O)N2C(C(=O)O)=C(CSc3nnnn3C)CO[C@@H]21 (stereo not given in full)	inactive
C=C[Si](OC(C)=O)(OC(C)=O)OC(C)=O	active
Cc1ccc(C(=O)c2ccc(CC(=O)O)n2C)cc1	inactive
COc1c(N2CCNC(C)C2)c(F)cc2c(=O)c(C(=O)O)cn(C3CC3)c12 (stereo not given)	inactive

Identify the outcome logged in this assay for the molecule shown: CC(C)C(=O)OC(=O)C(C)C
inactive

Ref: PubChem BioAssay (Tox21)
